# key: entry, value: pIC50
Tgt: Human Factor D (Homo sapiens (Human), UniProt P00746)
Sequence (P00746 26-253): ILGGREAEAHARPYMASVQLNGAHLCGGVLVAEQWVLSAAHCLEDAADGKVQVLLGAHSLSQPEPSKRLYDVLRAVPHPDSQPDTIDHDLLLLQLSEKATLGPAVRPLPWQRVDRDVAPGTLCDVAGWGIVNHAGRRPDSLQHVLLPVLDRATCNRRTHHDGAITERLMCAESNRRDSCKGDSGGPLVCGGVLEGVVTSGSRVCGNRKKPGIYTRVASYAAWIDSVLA
Assay text: Human Factor D Assay
Type: biochemical
Experimental setup: Human Factor D assay of Example 8; Table 2; read-out: IC50
pIC50: −log10 of the molar value.
Reported property: pIC50

| Molecule | Reported property | Value measured |
| --- | --- | --- |
| CC(=O)c1nn(CC(=O)N2C[C@H](F)C[C@H]2C(=O)Nc2cccc(Br)n2)c2ccc(-c3cnc4cc(C(C)C)nn4c3)cc12 [Compound 274] | pIC50 | > 6.00 |
| CC(=O)c1cn(CC(=O)N2C[C@H](F)C[C@H]2C(=O)Nc2cccc(-c3ccccc3Cl)c2F)c2cc(O)c(-c3cnc(C)nc3)cc12 [Compound 320] | pIC50 | > 6.00 |
| Cc1ncc(-c2cc3c(s2)c(C(N)=O)nn3CC(=O)N2C[C@H](F)C[C@H]2C(=O)Nc2cccc(-c3ccccc3Cl)c2F)cn1 [Compound 314] | pIC50 | > 6.00 |
